As shown below, each of these compounds has a reported pest or weed control at 200 ppm value.
Test system: Puccinia recondita f. sp. tritici
Assay: Puccinia recondita f. sp. tritici / wheat / leaf disc curative (brown rust)
Format: in vivo
Conditions: foliar, 200 ppm applied 1 day after inoculation, wheat leaf segments cv Kanzler, assessed 6-8 days after application, read-out: control of Puccinia recondita f. sp. tritici, curative (percent disease control compared to untreated)

- COMPOUND: "Cc1ccc2c(n1)/C(=N/OCC(C)(C)CO/N=C1\\CCCc3c(CF)cc(C)nc31)CCC2 [P.44]"
  pest or weed control at 200 ppm: "≥ 80%"
- COMPOUND: "Cc1ccc2c(n1)/C(=N/OCC(C)(C)CO/N=C1\\CCCc3c1nc1ccccc1c3C)CCC2 [P.38]"
  pest or weed control at 200 ppm: "≥ 80%"
- COMPOUND: "Cc1ccc2c(n1)/C(=N/OCC(O)CO/N=C1\\CCCc3ccc(C)nc31)CCC2 (centres unmarked) [P.11]"
  pest or weed control at 200 ppm: "≥ 80%"

Recorded pest or weed control at 200 ppm for C=C(CO/N=C1\CCCc2ccc(C)nc21)CO/N=C1\CCCc2ccc(C)nc21 [P.07] with Puccinia recondita f. sp. tritici, please? ≥ 80%

Recorded pest or weed control at 200 ppm for COCc1cc(C)c2c(n1)/C(=N/OCC(C)(C)CO/N=C1\CCCc3ccc(C)nc31)CCC2 [P.42] with Puccinia recondita f. sp. tritici, please? ≥ 80%

Recorded pest or weed control at 200 ppm for Cc1ccc2c(n1)/C(=N/OCC1(CO/N=C3\CCCc4ccc(C)nc43)CC1)CCC2 [P.03] with Puccinia recondita f. sp. tritici, please? ≥ 80%

Recorded pest or weed control at 200 ppm for Cc1ccc2c(n1)/C(=N/OCCCO/N=C1\CCCc3ccc(C(F)(F)F)nc31)CCC2 [P.47] with Puccinia recondita f. sp. tritici, please? ≥ 80%

Recorded pest or weed control at 200 ppm for Cc1ccc2c(n1)/C(=N/OCCCO/N=C1\CCCc3cc4c(nc31)CCCC4)CCC2 [P.39] with Puccinia recondita f. sp. tritici, please? ≥ 80%

Recorded pest or weed control at 200 ppm for Cc1ccc2c(n1)/C(=N/OCC(Cl)CO/N=C1\CCCc3ccc(C)nc31)CCC2 (centres unmarked) [P.24] with Puccinia recondita f. sp. tritici, please? ≥ 80%

Recorded pest or weed control at 200 ppm for Cc1ccc2c(n1)/C(=N/OCCCO/N=C1\CCCc3c(C(F)F)cc(C)nc31)CCC2 [P.46] with Puccinia recondita f. sp. tritici, please? ≥ 80%

###

As shown below, each of these molecules has a reported pest or weed control at 200 ppm value.
Test system: Puccinia recondita f. sp. tritici
Assay: Puccinia recondita f. sp. tritici / wheat / leaf disc curative (brown rust)
Assay type: in vivo
Conditions: foliar, 200 ppm applied 1 day after inoculation, wheat leaf segments cv Kanzler, assessed 6-8 days after application, read-out: control of Puccinia recondita f. sp. tritici, curative (percent disease control compared to untreated)
Experimental: Puccinia Recondita f. Sp. Tritici/Wheat/Leaf Disc Curative (Brown Rust): Wheat leaf segments cv Kanzler were placed on agar in 24-well plates. The leaf segments were inoculated with a spore suspension of the fungus. The plates were stored in darkness at 19° C. and 75% relative humidity. The formulated test compound diluted in water was applied at an application rate of 200 ppm 1 day after inoculation.

Solved cases below.
- MOLECULE: "Cc1ccc2c(n1)/C(=N/OCC(C)CO/N=C1\\CCCc3ccc(C)nc31)CCC2 (stereo not drawn) [P.09]"
  pest or weed control at 200 ppm: "≥ 80%"
- MOLECULE: "Cc1ccc2c(n1)/C(=N/OCC(CO/N=C1\\CCCc3ccc(C)nc31)c1ccccc1)CCC2 (stereo not drawn) [P.04]"
  pest or weed control at 200 ppm: "≥ 80%"
- MOLECULE: "Cc1ccc2c(n1)/C(=N/OCCCO/N=C1\\CCCc3c(C)cc(C)nc31)CCC2 [P.30]"
  pest or weed control at 200 ppm: "≥ 80%"
- MOLECULE: "Cc1ccc2c(n1)/C(=N/OCC(C)(C)CO/N=C1\\CCCc3ccc(C)nc31)CCC2 [P.02]"
  pest or weed control at 200 ppm: "≥ 80%"
- MOLECULE: "CCC(CO/N=C1\\CCCc2ccc(C)nc21)CO/N=C1\\CCCc2ccc(C)nc21 [P.10]"
  pest or weed control at 200 ppm: "≥ 80%"

Which pest or weed control at 200 ppm is reported for this molecule? Cc1cc(CF)nc2c1CCC/C2=N\OCC(C)(C)CO/N=C1\CCCc2c(C)cc(CF)nc21 [P.34] ≥ 80%

Which pest or weed control at 200 ppm is reported for this molecule? Cc1ccc2c(n1)/C(=N/OCCCO/N=C1\CCCc3ccc(C)nc31)CCC2 [P.05] ≥ 80%

Which pest or weed control at 200 ppm is reported for this molecule? Cc1cc(CF)c2c(n1)/C(=N/OCCCO/N=C1\CCCc3c(CF)cc(C)nc31)CCC2 [P.48] ≥ 80%

Which pest or weed control at 200 ppm is reported for this molecule? Cc1ccc2c(n1)/C(=N/OCC(F)CO/N=C1\CCCc3ccc(C)nc31)CCC2 (stereo not drawn) [P.14] ≥ 80%
